System name: T1, Claudin 18.2 (CLDN18.2), expressed on CHOS-CLDN 18.2 / HEK293-CLDN 18.2 / HCC827-CLDN 18.2 cells (human, UniProt P56856-2 1-261)
T1 construct: whole, on cells; The species is not repeated for the CHOS-CLDN 18.2 cells; also called claudin-18A2
Assay remarks: FACS, CHOS-CLDN18.2 cells, 5 µg/ml
Quantity kind: FACS reading
# output: bare number, no unit

The measured FACS reading associated with QP14641460 (antibody, human IgG1, kappa, V domains shown, Humanized from QP207208) VH: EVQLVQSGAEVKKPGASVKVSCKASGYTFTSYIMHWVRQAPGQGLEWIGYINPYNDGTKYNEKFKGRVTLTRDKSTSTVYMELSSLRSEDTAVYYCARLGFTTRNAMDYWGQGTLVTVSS VL: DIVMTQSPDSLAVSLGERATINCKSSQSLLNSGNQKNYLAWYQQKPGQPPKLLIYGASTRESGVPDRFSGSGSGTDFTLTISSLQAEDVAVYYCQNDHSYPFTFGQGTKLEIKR reads 191000

Data credit: patent US20230183352A1
